- assay: Mouse microsomal stability
- Format: in vitro ADME
- cond: mouse, microsomes; Table 1; read-out: Mouse microsome unbound intrinsic clearance
observed-property: CLint scaled at 2 μM
I'd appreciate it if you included the unit after the number.

Exercise: Which CLint scaled at 2 μM reading was recorded for the compound c1csc(-c2nnc(COc3ccc4c(c3)OCO4)o2)c1 ?
Key: 332 mL/min/kg

====

- assay: physchem
- cond: pH 7.4
Given measured solubility, output MET if it is greater than or equal to 30 µg/mL and NOT MET if not.

Exercise: Say whether c1csc(-c2nnc(Cc3cccc4c3OCCO4)o2)c1 shows solubility of 30 µg/mL or more.
Key: MET

Exercise: Say whether c1ccc(Cc2nnc(-c3cccs3)o2)cc1 shows solubility of 30 µg/mL or more.
Key: MET

Exercise: Say whether c1ccc(-c2nnc(CN3Cc4ccccc4C3)o2)cc1 shows solubility of 30 µg/mL or more.
Key: NOT MET

Exercise: Say whether c1ccc(C2CCCN2Cc2nnc(-c3cccs3)o2)cc1 (stereo not shown) shows solubility of 30 µg/mL or more.
Key: MET

Exercise: Say whether c1coc(-c2nnc(SCc3cccc4ccccc34)o2)c1 shows solubility of 30 µg/mL or more.
Key: NOT MET

Exercise: Say whether CN(Cc1nnc(-c2ccccc2)o1)Cc1c(F)cccc1Cl shows solubility of 30 µg/mL or more.
Key: MET

Exercise: Say whether CN(Cc1ccc(C(F)(F)F)cc1)Cc1nnc(-c2cccs2)o1 shows solubility of 30 µg/mL or more.
Key: NOT MET

Exercise: Say whether CN(Cc1nnc(-c2ccco2)o1)Cc1c(F)cccc1Cl shows solubility of 30 µg/mL or more.
Key: MET

Exercise: Say whether c1ccc(-c2nnc(CN3CCCc4ccccc43)o2)cc1 shows solubility of 30 µg/mL or more.
Key: NOT MET

Exercise: Say whether c1csc(-c2nnc(Cc3cccc4ccccc34)o2)c1 shows solubility of 30 µg/mL or more.
Key: NOT MET

====

- assay: Mouse microsomal stability
- Type: in vitro ADME
- cond: mouse, microsomes, 0.5 h, 2 μM
observed-property: Mouse microsome (% metabolized in 30 min) (%)
Your answer is read as %, so omit the unit and give the number.

Exercise: Which Mouse microsome (% metabolized in 30 min) reading was recorded for the molecule c1csc(-c2nnc(Cc3cccc4c3OCCO4)o2)c1 ?
Key: 99

Exercise: Which Mouse microsome (% metabolized in 30 min) reading was recorded for the molecule Fc1ccc(-c2nnc(CN3CCOc4ccccc43)o2)cc1 ?
Key: 98

Exercise: Which Mouse microsome (% metabolized in 30 min) reading was recorded for the molecule CN(Cc1nnc(-c2ccco2)s1)Cc1c(F)cccc1Cl ?
Key: 99

Exercise: Which Mouse microsome (% metabolized in 30 min) reading was recorded for the molecule FC(F)(F)c1ccc(-c2nnc(CN3CCCc4ccccc43)o2)cc1 ?
Key: 87

Exercise: Which Mouse microsome (% metabolized in 30 min) reading was recorded for the molecule CN(Cc1nnc(-c2ccco2)o1)Cc1c(F)cccc1Cl ?
Key: 99

Exercise: Which Mouse microsome (% metabolized in 30 min) reading was recorded for the molecule c1ccc(-c2nnc(CN3Cc4ccccc4C3)o2)cc1 ?
Key: 98

Exercise: Which Mouse microsome (% metabolized in 30 min) reading was recorded for the molecule c1ccc(-c2nnc(CN3CCCC3c3ccccc3)o2)cc1 (stereo not shown) ?
Key: 99

Exercise: Which Mouse microsome (% metabolized in 30 min) reading was recorded for the molecule CN(Cc1ccccc1)Cc1nnc(-c2ccco2)o1 ?
Key: 95

Exercise: Which Mouse microsome (% metabolized in 30 min) reading was recorded for the molecule CN(CCc1c(F)cccc1Cl)c1nnc(-c2ccco2)o1 ?
Key: 99

Exercise: Which Mouse microsome (% metabolized in 30 min) reading was recorded for the molecule c1ccc(-c2nnc(CN3CCCc4ccccc43)o2)cc1 ?
Key: 100
